B1: KIAA1161 (parent)
chain: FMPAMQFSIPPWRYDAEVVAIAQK

- Variants of: B1
- measurement.description: protein stability index of a GFP-peptide fusion (GPS, HEK-293T) (PSI 1-6); higher = more stable;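 further: lentivirally expressed fusions sorted by FACS into six bins by GFP to DsRed ratio, PSI derived from sequencing read proportions per bin multiplied by bin number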
- measurement.conditions: c terminus: a fixed tail appended
Could you label it Met if measured protein stability index is 2 or higher, and Not met otherwise?

Answer whether protein stability index of `F7P` is greater than or equal to 2.
Met

Answer whether protein stability index of `W12I` is greater than or equal to 2.
Met

Answer whether protein stability index of `K24M` is greater than or equal to 2.
Not met

Answer whether protein stability index of `D15Y` is greater than or equal to 2.
Met

Answer whether protein stability index of `W12S` is greater than or equal to 2.
Met

Answer whether protein stability index of `W12M` is greater than or equal to 2.
Met

Answer whether protein stability index of `R13Y` is greater than or equal to 2.
Not met

Answer whether protein stability index of `D15L` is greater than or equal to 2.
Not met
